All values here come from paper PMC11079064.

Test system: rat brain meningeal fibroblasts
EXPERIMENTAL DETAILS: LPA-induced activation of rat meningeal fibroblasts (COL1+ area)
Assay type: cell-based
PROTOCOL CONDITIONS: LPA stimulation, read-out: IC50 of inhibition of increase in COL1+ area
ATTRIBUTE MEASURED: IC50 (nM)
Answers are plain numbers, in nM.

Enquiry: Given COc1ccc(NC(=O)N(c2ccccc2C(C)C)C2CCC(C(=O)O)CC2)c(OC(F)F)n1 (stereo not shown) [PIPE-791] , state its recorded IC50.
Return: 31.8

---

TEST SYSTEM: human LPA1 (Homo sapiens, UniProt Q92633)
Construct: expressed in transfected cells
Sequence (Q92633 whole entry): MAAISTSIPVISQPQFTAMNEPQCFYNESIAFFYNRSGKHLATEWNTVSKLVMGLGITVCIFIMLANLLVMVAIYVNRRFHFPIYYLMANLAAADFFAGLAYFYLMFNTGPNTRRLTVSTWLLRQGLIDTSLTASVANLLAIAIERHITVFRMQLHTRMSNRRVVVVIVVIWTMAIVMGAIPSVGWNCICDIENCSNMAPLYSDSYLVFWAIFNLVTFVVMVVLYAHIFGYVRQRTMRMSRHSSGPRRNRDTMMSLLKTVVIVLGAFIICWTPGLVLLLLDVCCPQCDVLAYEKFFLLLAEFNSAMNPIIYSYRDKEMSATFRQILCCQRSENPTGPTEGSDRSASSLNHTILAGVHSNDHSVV
EXPERIMENTAL DETAILS: Competitive membrane filter radioligand binding assay
PROTOCOL CONDITIONS: membranes from cells overexpressing human LPA1, LPA1 selective radioligand
ATTRIBUTE MEASURED: IC50 (nM)
Give bare numbers, in nM.

Enquiry: For COc1ccc(NC(=O)N(c2ccccc2C(C)C)C2CCC(C(=O)O)CC2)c(OC(F)F)n1 (stereo not shown) , what is its reported IC50?
Return: 2.63

---

System: mouse cortical brain slices
EXPERIMENTAL DETAILS: Lysolecithin-treated mouse organotypic slice culture, MBP and Caspr immunostaining
Type: cell-based
PROTOCOL CONDITIONS: then 5 days treatment, read-out: EC50 of MBP+ area increase
Method: Slices were also evaluated using a histological endpoint. […] Caspr clustering was used as a marker for nodes of Ranvier formation which implicates the presence of functional axons that have responded to myelination[39],[40]. Immunohistological evaluation of MBP and Caspr in mouse brain slice culture: Brain slices were cultured as described above. […] MBP was expressed as MBP surface area normalized to Hoechst cell count; Caspr was expressed as the number of Caspr puncta normalized to Tuj1 intensity.
ATTRIBUTE MEASURED: pEC50
One number for each entry, as −log10 of the molar value.

Enquiry: Request - read-out pEC50 | tested on mouse cortical brain slices | molecule COc1ccc(NC(=O)N(c2ccccc2C(C)C)C2CCC(C(=O)O)CC2)c(OC(F)F)n1 (stereo not shown) [PIPE-791]
Return: 7.13

---

TEST SYSTEM: LPA1 (Mus musculus, UniProt P61793)
Construct: from tissue; host or cells: mouse brain (homogenate; forebrain of dosed C57BL6/N mice in the in vivo studies)
Sequence (P61793 whole entry): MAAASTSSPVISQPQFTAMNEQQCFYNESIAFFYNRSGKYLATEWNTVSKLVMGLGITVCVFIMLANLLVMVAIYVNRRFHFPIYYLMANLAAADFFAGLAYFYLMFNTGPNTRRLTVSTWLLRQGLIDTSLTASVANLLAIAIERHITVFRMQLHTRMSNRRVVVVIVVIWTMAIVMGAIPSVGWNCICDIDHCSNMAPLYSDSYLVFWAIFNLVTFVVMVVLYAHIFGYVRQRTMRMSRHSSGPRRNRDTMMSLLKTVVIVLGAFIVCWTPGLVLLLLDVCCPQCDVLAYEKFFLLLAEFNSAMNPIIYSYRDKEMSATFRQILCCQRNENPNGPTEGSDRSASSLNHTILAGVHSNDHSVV
EXPERIMENTAL DETAILS: In vivo brain LPA1 receptor occupancy with [3H]-OPC3497
PROTOCOL CONDITIONS: once daily for 4 consecutive days (steady state); read-out: unbound brain EC50
ATTRIBUTE MEASURED: EC50 (nM)
Answers are plain numbers, in nM.

Enquiry: Observed EC50 on LPA1 (Mus musculus, UniProt P61793) for COc1ccc(NC(=O)N(c2ccccc2C(C)C)C2CCC(C(=O)O)CC2)c(OC(F)F)n1 (stereo not shown) [PIPE-791] , please.
Return: 2.4
